Listed below: DC50 values for each entry.
# STUDY TARGET: GSPT1 (Homo sapiens, UniProt P15170+Q96SW2)
# Sequence (P15170 whole entry, one chain of several): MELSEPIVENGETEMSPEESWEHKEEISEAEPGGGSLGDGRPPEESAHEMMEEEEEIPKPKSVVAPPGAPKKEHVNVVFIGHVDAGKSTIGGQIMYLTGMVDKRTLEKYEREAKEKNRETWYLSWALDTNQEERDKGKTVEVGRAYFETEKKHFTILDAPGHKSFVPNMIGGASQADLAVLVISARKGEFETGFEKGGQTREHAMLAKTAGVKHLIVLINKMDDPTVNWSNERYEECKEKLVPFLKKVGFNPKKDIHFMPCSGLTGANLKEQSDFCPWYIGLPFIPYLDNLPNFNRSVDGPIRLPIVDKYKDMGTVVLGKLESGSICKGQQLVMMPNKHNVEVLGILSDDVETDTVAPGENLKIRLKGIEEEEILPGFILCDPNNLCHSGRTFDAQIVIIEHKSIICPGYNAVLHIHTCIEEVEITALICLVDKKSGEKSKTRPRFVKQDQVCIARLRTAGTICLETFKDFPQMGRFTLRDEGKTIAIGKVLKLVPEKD
# Sequence (Q16531 2-1140 partner limits assumed, one chain of several): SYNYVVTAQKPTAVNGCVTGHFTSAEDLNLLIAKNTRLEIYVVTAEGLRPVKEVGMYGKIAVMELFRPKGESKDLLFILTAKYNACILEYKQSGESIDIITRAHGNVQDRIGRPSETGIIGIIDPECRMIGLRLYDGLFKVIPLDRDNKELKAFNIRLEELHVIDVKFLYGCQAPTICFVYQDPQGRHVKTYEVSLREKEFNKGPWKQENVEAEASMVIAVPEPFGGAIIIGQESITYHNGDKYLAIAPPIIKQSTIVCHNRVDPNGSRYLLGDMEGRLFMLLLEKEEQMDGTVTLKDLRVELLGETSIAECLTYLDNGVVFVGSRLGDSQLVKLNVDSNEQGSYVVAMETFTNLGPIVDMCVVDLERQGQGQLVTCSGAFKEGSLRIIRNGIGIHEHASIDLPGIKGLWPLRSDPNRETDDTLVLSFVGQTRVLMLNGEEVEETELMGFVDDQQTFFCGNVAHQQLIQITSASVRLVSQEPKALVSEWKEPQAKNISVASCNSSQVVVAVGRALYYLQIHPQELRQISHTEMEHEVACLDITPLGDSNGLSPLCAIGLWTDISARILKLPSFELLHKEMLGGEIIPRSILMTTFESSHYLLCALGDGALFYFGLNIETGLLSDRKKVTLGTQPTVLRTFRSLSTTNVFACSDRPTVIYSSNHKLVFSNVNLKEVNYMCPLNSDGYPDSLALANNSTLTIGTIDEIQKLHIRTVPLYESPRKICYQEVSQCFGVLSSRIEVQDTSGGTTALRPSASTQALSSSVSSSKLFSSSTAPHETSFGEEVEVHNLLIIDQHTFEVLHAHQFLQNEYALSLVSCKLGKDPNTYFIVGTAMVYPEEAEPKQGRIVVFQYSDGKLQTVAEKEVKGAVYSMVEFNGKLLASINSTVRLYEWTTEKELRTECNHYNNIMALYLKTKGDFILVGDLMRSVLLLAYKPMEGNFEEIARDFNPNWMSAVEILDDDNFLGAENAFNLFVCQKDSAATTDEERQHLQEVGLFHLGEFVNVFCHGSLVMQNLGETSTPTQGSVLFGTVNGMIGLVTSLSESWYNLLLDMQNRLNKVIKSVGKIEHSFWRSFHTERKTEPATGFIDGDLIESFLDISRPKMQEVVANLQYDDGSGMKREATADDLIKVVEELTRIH
# EXPERIMENTAL DETAILS: Immunofluorescence assay for GSPT1 degradation in CAL-51 cells
# Assay type: cell-based
# Design: CAL-51 cells were purchased from DSMZ (cat. Number ACC302); endogenous in cells; host or cells: CAL-51 (DSMZ ACC302)
# TEST CONTEXT: compound treatment 6 hours, read-out: Code: activity for GSPT1 degradation (DC50)

Cc1cc(Cl)ccc1NC(=O)NCc1ccc2c(c1)C(=O)N(C1CCC(=O)NC1=O)C2 (stereo not shown)	> 300 nM
Cc1c(Cl)cc(NC(=O)NCc2ccc3c(c2)C(=O)N(C2CCC(=O)NC2=O)C3)cc1CC1COC(C)(C)OC1 (stereo not shown)	≤ 100 nM
O=C1CCC(N2Cc3ccc(CNC(=O)NCC4CC4)cc3C2=O)C(=O)N1 (stereo not shown)	> 300 nM

Next:
q: Supply reported DC50 belonging to this compound: Cc1cc(NC(=O)NCc2ccc3c(c2)C(=O)N(C2CCC(=O)NC2=O)C3)ccc1Cl (stereo not shown)
a: ≤ 100 nM

----------
Listed below: DC50 values for each entry.
# STUDY TARGET: GSPT1 (Homo sapiens, UniProt P15170+Q96SW2)
# EXPERIMENTAL DETAILS: Immunofluorescence assay for GSPT1 degradation in CAL-51 cells
# Assay type: cell-based
# Design: CAL-51 cells were purchased from DSMZ (cat. Number ACC302); endogenous in cells; host or cells: CAL-51 (DSMZ ACC302)
# TEST CONTEXT: compound treatment 6 hours, read-out: Code: activity for GSPT1 degradation (DC50)

Answered examples (5):
CCc1ccccc1NC(=O)NCc1ccc2c(c1)C(=O)N(C1CCC(=O)NC1=O)C2 (centres unmarked)	> 300 nM
O=C1CCC(N2Cc3ccc(CNC(=O)NCCCc4ccccc4)cc3C2=O)C(=O)N1 (centres unmarked)	> 300 nM
O=C1CCC(N2Cc3ccc(CNC(=O)Nc4cccc(Cl)c4F)cc3C2=O)C(=O)N1 (centres unmarked)	≤ 100 nM
O=C1CCC(N2Cc3ccc(CNC(=O)Nc4cccc(-c5ncc[nH]5)c4)cc3C2=O)C(=O)N1 (centres unmarked)	> 300 nM
O=C1CCC(N2Cc3ccc(CNC(=O)Nc4cscn4)cc3C2=O)C(=O)N1 (centres unmarked)	> 300 nM

q: Supply reported DC50 belonging to this compound: CC(C)NC(=O)NCc1ccc2c(c1)C(=O)N(C1CCC(=O)NC1=O)C2 (centres unmarked)
a: > 300 nM

q: Supply reported DC50 belonging to this compound: O=C1CCC(N2Cc3ccc(CNC(=O)Nc4ccon4)cc3C2=O)C(=O)N1 (centres unmarked)
a: > 300 nM

----------
# STUDY TARGET: GSPT1 (Homo sapiens, UniProt P15170+Q96SW2)
# EXPERIMENTAL DETAILS: Immunofluorescence assay for GSPT1 degradation in CAL-51 cells
# Type: cell-based
# Set-up: CAL-51 cells were purchased from DSMZ (cat. Number ACC302); endogenous in cells; host or cells: CAL-51 (DSMZ ACC302)
# TEST CONTEXT: compound treatment 6 hours, read-out: Code: activity for GSPT1 degradation (DC50)
ENDPOINT LABEL: DC50

Cn1nccc1-c1cccc(NC(=O)NCc2ccc3c(c2)C(=O)N(C2CCC(=O)NC2=O)C3)c1 (centres unmarked)	100 to 300 nM
COCCOc1cc(NC(=O)NCc2ccc3c(c2)C(=O)N(C2CCC(=O)NC2=O)C3)cc(Cl)c1C (centres unmarked)	≤ 100 nM
O=C1CCC(N2Cc3ccc(CNC(=O)Nc4cc(F)cc(OC(F)(F)F)c4)cc3C2=O)C(=O)N1 (centres unmarked)	> 300 nM
Cc1cnc(NC(=O)NCc2ccc3c(c2)C(=O)N(C2CCC(=O)NC2=O)C3)s1 (centres unmarked)	> 300 nM

q: Supply reported DC50 belonging to this compound: Cc1cc(NC(=O)NCc2ccc3c(c2)C(=O)N(C2CCC(=O)NC2=O)C3)no1 (centres unmarked)
a: > 300 nM

----------
What follows is a collection of pIC50 values obtained with Full length wild-type cereblon CRBN (Homo sapiens, UniProt Q96SW2).
Sequence (Q96SW2 whole entry): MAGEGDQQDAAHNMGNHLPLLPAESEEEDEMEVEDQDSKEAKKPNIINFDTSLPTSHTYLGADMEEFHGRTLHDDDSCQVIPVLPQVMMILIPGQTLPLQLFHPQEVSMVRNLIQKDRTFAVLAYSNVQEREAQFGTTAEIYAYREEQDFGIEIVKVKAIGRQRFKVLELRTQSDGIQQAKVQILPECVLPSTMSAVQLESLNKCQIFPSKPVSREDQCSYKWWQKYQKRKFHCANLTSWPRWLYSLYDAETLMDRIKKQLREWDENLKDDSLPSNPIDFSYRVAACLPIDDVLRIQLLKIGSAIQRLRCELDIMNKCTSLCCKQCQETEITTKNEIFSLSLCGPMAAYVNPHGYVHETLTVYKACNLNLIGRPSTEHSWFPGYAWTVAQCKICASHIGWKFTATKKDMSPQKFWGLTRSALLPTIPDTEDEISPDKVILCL
# log scale: pIC50 equals minus log10 of the concentration in mol/L

Answered examples (3):
Nc1ccc(NC(=O)NCc2ccc3c(c2)C(=O)N(C2CCC(=O)NC2=O)C3)cc1 (stereo not shown)	6.04
COc1ccccc1NC(=O)NCc1ccc2c(c1)C(=O)N(C1CCC(=O)NC1=O)C2 (stereo not shown)	6.49
O=C1CCC(N2Cc3ccc(CNC(=O)Nc4cccc(C(F)F)c4)cc3C2=O)C(=O)N1 (stereo not shown)	6.45

Next:
q: Lab note: record pIC50 of COc1ccc(CNC(=O)NCc2ccc3c(c2)C(=O)N(C2CCC(=O)NC2=O)C3)cc1 (stereo not shown) tested on Full length wild-type cereblon CRBN (Homo sapiens, UniProt Q96SW2).
a: 6.32

----------
Listed below: IC50 values for each entry.
# STUDY TARGET: Full length wild-type cereblon CRBN (Homo sapiens)
The response must be a number in µM with no trailing unit.

Answered examples (3):
O=C1CCC(N2Cc3ccc(CNC(=O)Nc4cccc(OC(=O)CN5CCOCC5)c4)cc3C2=O)C(=O)N1 (stereo not shown) [Compound 110]	0.302
Cc1cccc(CNC(=O)NCc2ccc3c(c2)C(=O)N(C2CCC(=O)NC2=O)C3)c1 (stereo not shown) [Compound 63]	0.492
CN(C)CC(=O)Oc1cccc(NC(=O)NCc2ccc3c(c2)C(=O)N(C2CCC(=O)NC2=O)C3)c1 (stereo not shown) [Compound 136]	0.425

q: Lab note: record IC50 of Cc1cc(NC(=O)NCc2ccc3c(c2)C(=O)N(C2CCC(=O)NC2=O)C3)ccc1Cl (stereo not shown) [Compound 61] tested on Full length wild-type cereblon CRBN (Homo sapiens).
a: 0.381

----------
What follows is a collection of IC50 values obtained with Full length wild-type cereblon CRBN (Homo sapiens, UniProt Q96SW2).
The response must be a number in nM with no trailing unit.

Answered examples (8):
Cc1c(Cl)cc(NC(=O)NCc2ccc3c(c2)C(=O)N(C2CCC(=O)NC2=O)C3)cc1CN1CCN2CCC1C2 (centres unmarked)	688
O=C1CCC(N2Cc3ccc(CNC(=O)Nc4ccc(C(F)(F)F)cc4)cc3C2=O)C(=O)N1 (centres unmarked)	590
Cc1c(CN2CCOCC2)cc(NC(=O)NCc2ccc3c(c2)C(=O)N(C2CCC(=O)NC2=O)C3)cc1OC(F)(F)F (centres unmarked)	883
Cc1c(Cl)cc(NC(=O)NCc2ccc3c(c2)C(=O)N(C2CCC(=O)NC2=O)C3)cc1C[C@H]1CO[C@@H](C)OC1 (some centres unmarked)	741
O=C1CCC(N2Cc3ccc(CNC(=O)NC4CCCCC4)cc3C2=O)C(=O)N1 (centres unmarked)	1140
O=C1CCC(N2Cc3ccc(CNC(=O)Nc4ccccc4F)cc3C2=O)C(=O)N1 (centres unmarked)	719
O=C1CCC(N2Cc3ccc(CNC(=O)Nc4cc(Cl)ccc4Cl)cc3C2=O)C(=O)N1 (centres unmarked)	602
O=C1CCC(N2Cc3ccc(CNC(=O)Nc4ccc(OC(F)(F)F)cc4)cc3C2=O)C(=O)N1 (centres unmarked)	570

q: Supply reported IC50 belonging to this compound: O=C1CCC(N2Cc3ccc(CNC(=O)Nc4cc(F)ccc4F)cc3C2=O)C(=O)N1 (centres unmarked)
a: 381

q: Supply reported IC50 belonging to this compound: Cc1cc(NC(=O)NCc2ccc3c(c2)C(=O)N(C2CCC(=O)NC2=O)C3)sn1 (centres unmarked)
a: 341

q: Supply reported IC50 belonging to this compound: O=C1CCC(N2Cc3ccc(CNC(=O)Nc4cccc(OC(F)(F)F)c4)cc3C2=O)C(=O)N1 (centres unmarked)
a: 471

q: Supply reported IC50 belonging to this compound: CCc1ccc(NC(=O)NCc2ccc3c(c2)C(=O)N(C2CCC(=O)NC2=O)C3)cc1 (centres unmarked)
a: 552

q: Supply reported IC50 belonging to this compound: Cc1cc(Cl)c(NC(=O)NCc2ccc3c(c2)C(=O)N(C2CCC(=O)NC2=O)C3)c(C)c1Cl (centres unmarked)
a: 222

q: Supply reported IC50 belonging to this compound: COc1ccc(NC(=O)NCc2ccc3c(c2)C(=O)N(C2CCC(=O)NC2=O)C3)c(C)c1 (centres unmarked)
a: 464

----------
Listed below: DC50 values for each entry.
# STUDY TARGET: GSPT1 (Homo sapiens, UniProt P15170+Q96SW2)
# EXPERIMENTAL DETAILS: Immunofluorescence assay for GSPT1 degradation in CAL-51 cells
# Assay type: cell-based
# Design: CAL-51 cells were purchased from DSMZ (cat. Number ACC302); endogenous in cells; host or cells: CAL-51 (DSMZ ACC302)
# TEST CONTEXT: compound treatment 6 hours, read-out: Code: activity for GSPT1 degradation (DC50)

O=C1CCC(N2Cc3ccc(CNC(=O)Nc4ccc(Cl)c(Cl)c4)cc3C2=O)C(=O)N1 (stereo not shown) [Compound 46]	≤ 100 nM
CCc1ccc(NC(=O)NCc2ccc3c(c2)C(=O)N(C2CCC(=O)NC2=O)C3)cc1 (stereo not shown) [Compound 18]	> 300 nM
O=C1CCC(N2Cc3ccc(CNC(=O)NCCc4ccc(Cl)cc4)cc3C2=O)C(=O)N1 (stereo not shown) [Compound 64]	> 300 nM

Next:
q: Supply reported DC50 belonging to this compound: Cn1ccc(NC(=O)NCc2ccc3c(c2)C(=O)N(C2CCC(=O)NC2=O)C3)c1 (stereo not shown) [Compound 128]
a: > 300 nM
